Molecular target: wild-type his-tagged mouse Pgp transporter reconstituted into liposomes (Mus musculus, UniProt P21447)
Sequence (P21447 whole entry): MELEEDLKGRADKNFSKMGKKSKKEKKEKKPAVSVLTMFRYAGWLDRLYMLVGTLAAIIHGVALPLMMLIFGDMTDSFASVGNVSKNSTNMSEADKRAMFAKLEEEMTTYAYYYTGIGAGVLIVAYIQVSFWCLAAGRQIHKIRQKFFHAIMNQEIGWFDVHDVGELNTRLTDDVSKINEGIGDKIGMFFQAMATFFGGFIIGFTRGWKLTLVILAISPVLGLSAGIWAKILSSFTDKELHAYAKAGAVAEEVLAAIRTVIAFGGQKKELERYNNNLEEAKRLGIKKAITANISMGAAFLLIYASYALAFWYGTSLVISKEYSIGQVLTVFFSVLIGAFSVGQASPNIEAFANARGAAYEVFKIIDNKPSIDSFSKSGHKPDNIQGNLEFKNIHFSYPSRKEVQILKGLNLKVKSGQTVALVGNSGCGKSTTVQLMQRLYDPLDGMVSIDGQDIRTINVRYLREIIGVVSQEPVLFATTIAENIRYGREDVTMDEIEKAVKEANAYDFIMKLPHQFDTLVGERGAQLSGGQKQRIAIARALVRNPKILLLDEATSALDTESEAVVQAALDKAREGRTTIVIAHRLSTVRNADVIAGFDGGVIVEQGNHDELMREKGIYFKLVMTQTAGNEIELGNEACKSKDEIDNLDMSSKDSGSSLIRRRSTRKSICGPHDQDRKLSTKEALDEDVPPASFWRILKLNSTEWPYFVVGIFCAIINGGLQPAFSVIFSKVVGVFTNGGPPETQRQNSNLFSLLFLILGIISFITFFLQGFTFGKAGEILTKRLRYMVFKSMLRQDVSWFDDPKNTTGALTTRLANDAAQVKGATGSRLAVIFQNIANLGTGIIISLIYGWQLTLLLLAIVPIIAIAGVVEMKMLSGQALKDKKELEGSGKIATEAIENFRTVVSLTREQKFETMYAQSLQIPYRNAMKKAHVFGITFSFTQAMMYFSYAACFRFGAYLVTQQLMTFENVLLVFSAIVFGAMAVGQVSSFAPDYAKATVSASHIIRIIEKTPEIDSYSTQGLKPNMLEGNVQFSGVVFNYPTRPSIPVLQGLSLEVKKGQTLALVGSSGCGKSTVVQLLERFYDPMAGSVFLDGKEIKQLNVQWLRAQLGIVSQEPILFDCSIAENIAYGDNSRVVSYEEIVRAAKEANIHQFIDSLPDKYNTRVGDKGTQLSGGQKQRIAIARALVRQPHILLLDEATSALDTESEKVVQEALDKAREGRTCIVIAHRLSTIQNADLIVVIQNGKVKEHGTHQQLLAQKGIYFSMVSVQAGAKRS
Assay: Pgp-coupled ATPase activity
Details: read-out: KD4 (ATP to EV, one bound verapamil); COPASI fit; 3.2 mM ATP data set
Test readout: Kd

>>> df
                                   compound  test_readout  observed
0  Nc1ncnc2c1ncn2[C@@H]1O[C@H](COP(=O)(O)OP(=O)([O-])OP(=O)([O-])O)[C@@H](O)[C@H]1O.[Na+].[Na+] [ATP, Disodium ATP]            Kd      1 mM
